Just for reference, ChEMBL document CHEMBL3046246 is where these values come from.

Below, each of the compounds is paired with its reported inhibition of growth at 1000 ppm value.
System: Sorghum halepense
Experiment: Herbicidal activity against three-leaf stage Sorghum halepense (Johnson grass) assessed as plant growth inhibition at 1000 ppm applied through foliar spraying measured after 10 days post compound treatment relative to untreated control
Type: functional
Settings: 240 h, read-out: GI
Reply with just the number (in %).

# count of solved cases: 2
{"compound": "O=C1NC(=O)[C@@]2(N1)O[C@H](CO)[C@@H](O)[C@H]2O [HYDANTOCIDIN]", "inhibition of growth at 1000 ppm / %": 95}
{"compound": "O=C1NC(=S)N[C@]12O[C@H](CO)[C@@H](O)[C@H]2O", "inhibition of growth at 1000 ppm / %": 95}

Task item: # returns recorded inhibition of growth at 1000 ppm (system: Sorghum halepense) for "O=C1NC(=S)N[C@@]12O[C@H](CO)[C@@H](O)[C@H]2O"
Reply: 95

Task item: # returns recorded inhibition of growth at 1000 ppm (system: Sorghum halepense) for O=C1NC(=O)[C@]2(N1)O[C@H](CO)[C@@H](O)[C@H]2O [HYDANTOCIDIN]
Reply: 0

* * *

Tested on: Panicum dichotomiflorum
Assay: Herbicidal activity against three-leaf stage Panicum dichotomiflorum assessed as plant growth inhibition at 1000 ppm applied through foliar spraying measured after 10 days post compound treatment relative to untreated control
Format: functional
Conditions: 240 h, read-out: GI
readout.label: inhibition of growth at 1000 ppm (%)
Reply with just the number (in %).

{"chem.smiles": "O=C1NC(=O)[C@]2(N1)O[C@H](CO)[C@@H](O)[C@H]2O", "units.label": "%", "value": 80}
{"chem.smiles": "O=C1NC(=S)N[C@]12O[C@H](CO)[C@@H](O)[C@H]2O", "units.label": "%", "value": 80}
{"chem.smiles": "O=C1NC(=S)N[C@@]12O[C@H](CO)[C@@H](O)[C@H]2O", "units.label": "%", "value": 80}

# input for lookup
Task item: Name the reported inhibition of growth at 1000 ppm value associated with the compound "O=C1NC(=O)[C@@]2(N1)O[C@H](CO)[C@@H](O)[C@H]2O"
Reply: 95

* * *

Below, each of the molecules is paired with its reported inhibition of growth at 1000 ppm value.
System: Setaria viridis
Experiment: Herbicidal activity against three-leaf stage Setaria viridis (green foxtail) assessed as plant growth inhibition at 1000 ppm applied through foliar spraying measured after 10 days post compound treatment relative to untreated control
Type: functional
Settings: 240 h, read-out: GI

Task item: Name the reported inhibition of growth at 1000 ppm value associated with the molecule "O=C1NC(=S)N[C@]12O[C@H](CO)[C@@H](O)[C@H]2O"
Reply: 95%

Task item: Name the reported inhibition of growth at 1000 ppm value associated with the molecule O=C1NC(=O)[C@@]2(N1)O[C@H](CO)[C@@H](O)[C@H]2O [HYDANTOCIDIN]
Reply: 95%

Task item: Name the reported inhibition of growth at 1000 ppm value associated with the molecule O=C1NC(=O)[C@]2(N1)O[C@H](CO)[C@@H](O)[C@H]2O [HYDANTOCIDIN]
Reply: 80%

Task item: Name the reported inhibition of growth at 1000 ppm value associated with the molecule "O=C1NC(=S)N[C@@]12O[C@H](CO)[C@@H](O)[C@H]2O"
Reply: 95%

* * *

Tested on: Echinochloa crus-galli
Experiment: Herbicidal activity against three-leaf stage Echinochloa crus-galli (barnyard grass) assessed as plant growth inhibition at 1000 ppm applied through foliar spraying measured after 10 days post compound treatment relative to untreated control
Format: functional
Conditions: 240 h, read-out: GI
Below, each of the molecules is paired with its reported inhibition of growth at 1000 ppm value.
Reply with just the number (in %).

# count of solved cases: 3
{"chem.smiles": "O=C1NC(=S)N[C@@]12O[C@H](CO)[C@@H](O)[C@H]2O", "assayed.target": "Echinochloa crus-galli", "inhibition of growth at 1000 ppm / %": 95}
{"chem.smiles": "O=C1NC(=O)[C@@]2(N1)O[C@H](CO)[C@@H](O)[C@H]2O", "assayed.target": "Echinochloa crus-galli", "inhibition of growth at 1000 ppm / %": 95}
{"chem.smiles": "O=C1NC(=O)[C@]2(N1)O[C@H](CO)[C@@H](O)[C@H]2O", "assayed.target": "Echinochloa crus-galli", "inhibition of growth at 1000 ppm / %": 10}

# input for lookup
Task item: Name the reported inhibition of growth at 1000 ppm value associated with the molecule "O=C1NC(=S)N[C@]12O[C@H](CO)[C@@H](O)[C@H]2O"
Reply: 95
